Recorded values, source ChEMBL document CHEMBL1201861.

- System: SW1990;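 also: cell growth inhibition determined with a viability assay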
- experimental_details: cells
- Format: functional, cell-based, Homo sapiens
- condition_label: Homo sapiens, SW1990
- Description: SANGER: Inhibition of human SW1990 cell growth in a cell viability assay.

{"smiles_input": "Cc1ccc(Nc2nccc(N(C)c3ccc4c(C)n(C)nc4c3)n2)cc1S(N)(=O)=O", "IC50": "> 8 µM"}
{"smiles_input": "CCOc1nc(NC(=O)Cc2cc(OC)ccc2OC)cc(N)c1C#N", "IC50": "> 10 µM"}
{"smiles_input": "CN(c1ncccc1CNc1nc(Nc2ccc3c(c2)CC(=O)N3)ncc1C(F)(F)F)S(C)(=O)=O", "IC50": "> 2.56 µM"}
{"smiles_input": "CC(=O)O[C@@H]1[C@@H](OC(C)=O)[C@@H](O)[C@H](Oc2c(-c3ccc(O)cc3)oc3cc(O)cc(O)c3c2=O)O[C@H]1C", "IC50": "> 10 µM"}
{"smiles_input": "O=c1cc(-c2cccc3c2Sc2ccccc2S3)oc(N2CCOCC2)c1", "IC50": "> 10 µM"}
{"smiles_input": "CCC1=C[C@@H]2CN(C1)Cc1c([nH]c3ccccc13)[C@@](C(=O)OC)(c1cc3c(cc1OC)N(C)[C@H]1[C@@](O)(C(=O)OC)[C@H](OC(C)=O)[C@]4(CC)C=CCN5CC[C@]31[C@@H]54)C2", "IC50": "> 0.064 µM"}
{"smiles_input": "COc1ccc(-c2ccc3c(N4CCOC[C@@H]4C)nc(N4CCOC[C@@H]4C)nc3n2)cc1CO", "IC50": "1.48 µM"}
{"smiles_input": "Cn1cc(C2=C(c3ccc(Cl)cc3Cl)C(=O)NC2=O)c2ccccc21", "IC50": "> 10 µM"}
{"smiles_input": "COC(=O)CNC(=O)C(=O)OC", "IC50": "441 µM"}
{"smiles_input": "O=C1N=C(NCc2cccs2)S/C1=C\\c1ccc2ncccc2c1", "IC50": "> 5 µM"}

* * *

- Tested on: RERF-LC-MS;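 also: growth inhibition of human RERF-LC-MS cells, read out by a cell viability assay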
- experimental_details: cells
- Assay type: functional, cell-based, Homo sapiens
- condition_label: Homo sapiens, RERF-LC-MS
- Description: SANGER: Inhibition of human RERF-LC-MS cell growth in a cell viability assay.
pIC50: −log10 of the molar value.
As shown below, each of these compounds has a reported pIC50 value.

{"smiles_input": "CCC1=C[C@@H]2CN(C1)Cc1c([nH]c3ccccc13)[C@@](C(=O)OC)(c1cc3c(cc1OC)N(C)[C@H]1[C@@](O)(C(=O)OC)[C@H](OC(C)=O)[C@]4(CC)C=CCN5CC[C@]31[C@@H]54)C2", "target_of_assay": "RERF-LC-MS", "rel": "=", "pIC50": 7.99}
{"smiles_input": "O=C(NOCC1CC1)c1ccc(F)c(F)c1Nc1ccc(I)cc1Cl", "target_of_assay": "RERF-LC-MS", "rel": "=", "pIC50": 5.25}
{"smiles_input": "Cc1ccc(Nc2nccc(N(C)c3ccc4c(C)n(C)nc4c3)n2)cc1S(N)(=O)=O", "target_of_assay": "RERF-LC-MS", "rel": "<", "pIC50": 5.10}

* * *

- Tested on: K562
- experimental_details: cells
- Type: functional, cell-based
- condition_label: Homo sapiens
- Description: SANGER: Inhibition of human K-562 cell growth in a cell viability assay.
pIC50: −log10 of the molar value.
reported_property: pIC50

{"molecule": "CCc1nc(N)nc(N)c1-c1ccc(Cl)cc1", "measurement": "< 4.70"}
{"molecule": "COc1cc(F)c(F)c(Nc2ccc(I)cc2F)c1NS(=O)(=O)C1(CC(O)CO)CC1 (stereo unspecified)", "measurement": "< 5.30"}
{"molecule": "CO[C@H]1C[C@@H]2CC[C@@H](C)[C@@](O)(O2)C(=O)C(=O)N2CCCC[C@H]2C(=O)O[C@H]([C@H](C)C[C@@H]2CC[C@@H](O)[C@H](OC)C2)CC(=O)[C@H](C)/C=C(\\C)[C@@H](O)[C@@H](OC)C(=O)[C@H](C)C[C@H](C)/C=C/C=C/C=C/1C", "measurement": "< 7.00"}
{"molecule": "CC(=O)O[C@@]12CO[C@@H]1C[C@H](O)[C@@]1(C)C(=O)[C@H](O)C3=C(C)[C@@H](OC(=O)[C@H](O)[C@@H](NC(=O)OC(C)(C)C)c4ccccc4)C[C@@](O)([C@@H](OC(=O)c4ccccc4)[C@H]21)C3(C)C", "measurement": "< 8.00"}
{"molecule": "CN(C)C/C=C/C(=O)Nc1cc2c(Nc3ccc(F)c(Cl)c3)ncnc2cc1O[C@H]1CCOC1", "measurement": "< 6.30"}
{"molecule": "CN1CCN(CCOc2cc(OC3CCOCC3)c3c(Nc4c(Cl)ccc5c4OCO5)ncnc3c2)CC1", "measurement": 6.35}
{"molecule": "O=C(NOCC1CC1)c1ccc(F)c(F)c1Nc1ccc(I)cc1Cl", "measurement": 5.05}
{"molecule": "O=C1N=C(NCc2cccs2)S/C1=C\\c1ccc2ncccc2c1", "measurement": "< 5.30"}
{"molecule": "COC(=O)CNC(=O)C(=O)OC", "measurement": 2.69}
{"molecule": "Cc1cc([C@@H](C)Nc2ccccc2C(=O)O)c2nc(N3CCOCC3)cc(=O)n2c1", "measurement": "< 5.29"}
{"molecule": "C=C1C(=O)O[C@@H]2C3O[C@]3(C)CC/C=C(\\C)CC[C@@H]12 (stereo partly specified)", "measurement": "< 5.30"}
